- Target Desc: T1, Antibody 178-08_His 501.V2 (27079) (SARS-CoV-2, UniProt P0DTC2 14-685)
- T1 construct: domain: S1; also called TB178-8
- Protocol Notes: Carterra SPR
Assay Readout: pKd
When answering, recall that pKd equals minus log10 of the concentration in mol/L, and write that number alone.

These recorded examples may help you get a feel for the data.
3-31 (VHH, also called 3-31_ExpiCHO) VHH: EVQLVESGGGLVQPGGSLRLSCAASGSTFSINAMGWFRQAPGKEREFVAGITSSGGYTNYADSVKGRFTISADNSKNTAYLQMNSLKPEDTAVYYCAADGVPEYSDYASGPVWGQGTLVTVSS : 4.01
3-28 (VHH, not shown: a dimerising Fc or GST) VHH: EVQLVESGGGLVQPGGSLRLSCAASGFTFRRYDMGWFRQAPGKEREFVSAISGGLAYYADSVKGRFTISADNSKNTAYLQMNSLKPEDTAVYYCAVDLSGDAVYDWGQGTLVTVSS : 7.66

Then this binder:
# input Requested field: pKd. Item: 7-14 (VHH) VHH: EVQLVESGGGLVQPGGSLRLSCAASGSTFSINAMGWFRQAPGKEREFVAGISRGGTTNYADSVKGRFTISADNSKNTAYLQMNSLKPEDTAVYYCAADGVPEYSDYASGPVWGQGTLVTVSS
# output 7.77
